- system tested: Histamine H1 receptor (Cavia porcellus, UniProt P31389)
- assay comment: Agonist activity at histamine H1 receptor in guinea pig ileum
endpoint label: pEC50
The quantity pEC50 is defined as the negative base-10 logarithm of the molar concentration.

input: Entry `NCCc1c[nH]c(C(=O)CC(c2ccccc2)c2ccccc2)n1` : reported pEC50 = ?
output: 5.78

====

- system tested: Histamine H1 receptor (Cavia porcellus) (UniProt P31389)
- Sequence (P31389 whole entry): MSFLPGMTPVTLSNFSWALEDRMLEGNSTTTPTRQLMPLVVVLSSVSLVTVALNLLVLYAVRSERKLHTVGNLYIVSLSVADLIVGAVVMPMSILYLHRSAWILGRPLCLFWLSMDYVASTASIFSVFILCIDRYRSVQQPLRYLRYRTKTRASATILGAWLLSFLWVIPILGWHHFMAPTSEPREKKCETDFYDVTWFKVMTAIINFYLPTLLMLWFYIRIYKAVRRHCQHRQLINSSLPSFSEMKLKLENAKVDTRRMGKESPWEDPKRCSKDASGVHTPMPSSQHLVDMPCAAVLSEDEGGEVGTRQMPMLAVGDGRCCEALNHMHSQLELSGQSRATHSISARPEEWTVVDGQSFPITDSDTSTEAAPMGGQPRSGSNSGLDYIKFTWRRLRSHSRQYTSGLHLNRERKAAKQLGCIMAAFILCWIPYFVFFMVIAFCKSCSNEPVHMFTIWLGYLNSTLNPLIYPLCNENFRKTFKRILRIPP
- assay comment: Functional activity at the histamine H1 receptor in guinea pig ileum
- Format: tissue-based
Entries and their pD'2
Field format: numeric only.

Below, each entry is followed by its recorded pD'2 result.
compound=COCCOCn1cc(CCN)nc1C(=O)CC(c1ccccc1)c1ccccc1 numeric_readout=5.05
compound=N[C@H](CO)[C@H](O)c1c[nH]c(C(=O)CC(c2ccccc2)c2ccccc2)n1 numeric_readout=4.08

input: Entry `COC(=O)[C@@H](N)[C@H](O)c1c[nH]c(C(=O)CC(c2ccccc2)c2ccccc2)n1` : reported pD'2 = ?
output: 4.61

input: Entry COC(=O)C(N)C(O)c1c[nH]c(C(=O)CC(c2ccccc2)c2ccccc2)n1 (racemic) : reported pD'2 = ?
output: 3.8

====

- system tested: Histamine H1 receptor (Cavia porcellus)
- assay comment: Agonist activity at histamine H1 receptor in guinea pig ileum
- Assay type: functional, tissue-based
Entries and their Emax
Give the number; % is assumed, so skip it.

Below, each entry is followed by its recorded Emax result.
compound="COC(=O)C(N)C(O)c1c[nH]c(C(=O)CC(c2ccccc2)c2ccccc2)n1 (racemic)" system_tested="Histamine H1 receptor (Cavia porcellus)" endpoint_label=Emax numeric_readout=0
compound=COC(=O)[C@@H](N)[C@H](O)c1c[nH]c(C(=O)CC(c2ccccc2)c2ccccc2)n1 system_tested="Histamine H1 receptor (Cavia porcellus)" endpoint_label=Emax numeric_readout=0
compound=N[C@H](CO)[C@H](O)c1c[nH]c(C(=O)CC(c2ccccc2)c2ccccc2)n1 system_tested="Histamine H1 receptor (Cavia porcellus)" endpoint_label=Emax numeric_readout=0
compound=COCCOCn1cc(CCN)nc1C(=O)CC(c1ccccc1)c1ccccc1 system_tested="Histamine H1 receptor (Cavia porcellus)" endpoint_label=Emax numeric_readout=0

Attention now turns to another entry.
input: Entry `NCCc1c[nH]c(C(=O)CC(c2ccccc2)c2ccccc2)n1` : reported Emax = ?
output: 75
